- Tested on: SR leukemia
- Method summary: NCI tumour cell line growth inhibition, 48 h
Reported metric: TGI (µM)
Entry rule: numbers only, all in µM.

[[record]]
molecule_smiles = "c1ccc(C(=NNc2nc3ccccc3[nH]2)c2ccccn2)nc1"
units_symbol = "µM"
measured_result = 0.271


Attention now turns to another entry.
stdin: GET /values?readout=TGI&item= c1ccc(Cn2cc3c(c2)-c2oncc2CC3)cc1
stdout: 4.34

###

- System: UACC-257 melanoma
- Method summary: NCI tumour cell line growth inhibition, 48 h
Items are presented alongside their recorded TGI.

[[record]]
compound = "C=CCN1CC2CN=NC2(C#N)C1 (stereo unspecified)"
measured_result = "> 100 µM"

[[record]]
compound = "Cc1cc(N(CCCNc2ccnc3cc(Cl)ccc23)Cc2cccs2)nc(Cl)n1"
measured_result = "11.1 µM"

[[record]]
compound = "Cc1ccc(C(=O)Nc2ccc(CN3CCN(C)CC3)c(C(F)(F)F)c2)cc1C#Cc1cncc2ncccc12"
measured_result = "4.42 µM"

[[record]]
compound = "Cc1nc2ccccc2c(=O)n1NC(=O)Cc1ccccc1"
measured_result = "> 100 µM"

[[record]]
compound = "COC(=O)Nc1nc2c(OC)c(OC)c(OC)cc2[nH]1"
measured_result = "> 100 µM"


Turning to the following compound.
stdin: Give the measured TGI of c1ccc([C@H]2CN3CCSC3=N2)cc1 .
stdout: > 100 µM
